test: Biodistribution of [111In]In-radiocomplexes in healthy mice; assay type: in vivo; conditions: 15 min p.i.
Answer each item with its documented Biodistribution: Liver.
One number for each entry, in % I.D./g.

Recorded results for 3 compounds are shown here.
O=C([O-])CN1CCN(CC(=O)[O-])CCN(CC(=O)NCCOCCOCCOCCOCCOCCOCCOCCOCCOCCOCCOCCNC(=O)CCCC(=O)NCc2ccc(-c3nncnn3)cc2)CCN(CC(=O)[O-])CC1.[111In+3] [[111In]In-DOTA-PEG-Tz]: 1.1
O=C([O-])CN1CCN(CC(=O)[O-])CCN(C(CCC(=O)NCCOCCOCCOCCOCCOCCOCCOCCOCCOCCOCCOCCNC(=O)CCCC(=O)NCc2ccc(-c3nncnn3)cc2)C(=O)[O-])CCN(CC(=O)[O-])CC1.[111In+3] (stereo not shown) [[111In]In-DOTAGA-PEG-Tz]: 0.8
O=C([O-])CN1CCN(CC(=O)[O-])CCN(C(CCC(=O)NCc2ccc(-c3nncnn3)cc2)C(=O)[O-])CCN(CC(=O)[O-])CC1.[111In+3] (stereo not shown) [[111In]In-DOTAGA-Tz]: 1.6

Challenge: I have this compound here, O=C([O-])CN1CCN(CC(=O)[O-])CCN(CC(=O)NCc2ccc(-c3nncnn3)cc2)CCN(CC(=O)[O-])CC1.[111In+3] [[111In]In-DOTA-Tz] , and I need its recorded Biodistribution: Liver.
Response given: 2.3

Ref: paper PMC8225959
